- measurement target: recombinant HA of influenza A H1 A/California/09 (influenza A virus H1 A/California/09)
- method notes: recombinant HA ELISA (AttoPhos fluorescence, mean of triplicates)
measured parameter: fold reactivity over background (fold over background)
Note: the reply should be a number with no unit written.

Look over these answered cases.
# binder, observed
data = [
    ("TRL053 (antibody, V domains shown) VH: QVQLVQSGAEVRKPGSSVKVSCKVSGGIIRKYAINWVRQAPGQGLEWMGGIIAIFNTANYAQKFQGRVTITADESTSTVYMELSSLRSEDTALYYCARGMNYYSDYFDYWGQGSLVTVSP VL: EIVLTQSPGTLSLSPGERATLSCRASQSVRSNNLAWYQHKPGQAPRLLIFGASSRATGIPDRFSGSGSGTDFTLTISRLEPEDFAVYYCQQYGSSPALTFGGGTKVEIKR", 25.6),
    ("TRL856 (antibody, V domains shown) VH: QVQLVESGGGLVQPGGSLRLSCAASGFTFSDYWMVWVRQAPGKGLVWVSRISSDGSTTSYADSVKGPFTISRDNAKNTLYLQMNSLRAEDTAVYYCARVATPYYYESGFDYWGQGALVTVSS VL: DIVLTQSPSVSVAPGQTARITCGGNDIGSKSVHWYQQKPGQAPVLVVFDDRDRPSGIPERFSGSNSGNTATLTISRVEAGDEADYYCQVWDITSDLVVFGGGTKLTVVG", 1.2),
    ("TRL832 (antibody, V domains shown) VH: QVQLVESGPGLMKPSETLSLTCTVSGGSVSNYYWSWIRQPPGKGLEWIGYVFYSGSSNYNPSLNNPSLKSRVTISIDTSNNQFSLKLSSVTAADTAVYYCARGRVNSGYDWGPNFDSWGQGALVTVSS VL: DIVLTQAPSVSVSPGQTASITCSGDRLGEKFASWYQQKPGQSPVLVIYEDSKRPSGIPDRFSGSNSGNTATLTISGTQIMDEGDFFCQAWDSSTVVFGGGTKLTVLG", 1.1),
]

Okay, next one:
Specify reported fold reactivity over background (fold over background) for the binder shown: TRL854 (antibody, V domains shown) VH: QVQLVESGAEVKKPGASVRVSCKGSGYTFTAYHMHWVRQAPGQGFEWVGWINPNSGATYYTSTFEGRVTMTRDTSITTAYMELSSLRSDDTAVYYCATDIVVERDASLGGFNSYGMDVWGQGTTVTVSS VL: DIEMTQSPLSLPVTPGEPASISCRSSQSLLHSNGYNHLAWYLQKPGRSPHLLIYLASTRASGVPDRFSGSGSGTDFTLKISRVEAEDVGIYYCMQSLQTSITFGQGTRLEIKR
1.2
